Recorded measurements of IC50, one per entry
Test system: A549 human lung carcinoma cells
Experimental Protocol: MTS cytotoxicity counter-screen of reconfirmed hits
Type: cell-based
Measurement Parameters: Homo sapiens, A549, 72 h, read-out: A549 Mean IC50 (µM)
Recorded Endpoint: IC50

Molecule	Meas Value
O=C(O)C(F)(F)F [Trifluoroacetic acid]	> 10 µM
Nc1nc(F)nc2c1ncn2[C@@H]1O[C@H](CO)[C@@H](O)[C@@H]1O [Fludarabine]	< 0.31 µM
CN(C/C=C/C#CC(C)(C)C)Cc1cccc2ccccc12 [Terbinafine]	> 10 µM

---

Tested on: Naegleria fowleri trophozoites
Experimental Protocol: CellTiter-Glo 2.0 trophocidal assay, N. fowleri
Assay type: cell-based
Measurement Parameters: Naegleria fowleri; CTG method, 72 h, duplicate twofold serial dilutions from 10 µM, mean ± SD; read-out: N. fowleri Mean IC50 (µM) ± SD
Recorded Endpoint: IC50 (µM)

Cpd Smiles	Recorded Endpoint	Measurement Unit	Meas Value
Nc1nc(F)nc2c1ncn2[C@@H]1O[C@H](CO)[C@@H](O)[C@@H]1O	IC50	µM	0.11

---

Tested on: Acanthamoeba castellanii trophozoites
Experimental Protocol: CellTiter-Glo 2.0 trophocidal assay, A. castellanii
Assay type: cell-based
Measurement Parameters: CTG method, 72 h, duplicate twofold serial dilutions from 10 µM, mean ± SD; listed as amorolfine

Compound	IC50
CCC(C)(C)c1ccc(CC(C)CN2C[C@@H](C)O[C@@H](C)C2)cc1 (stereo partly shown)	≤ 10 µM

---

System: Naegleria fowleri trophozoites
Experimental Protocol: CellTiter-Glo 2.0 trophocidal assay, N. fowleri
Type: cell-based
Measurement Parameters: Naegleria fowleri, 72 h, read-out: N. fowleri Mean IC50 (µM) ± SD
Recorded Endpoint: IC50 (µM)

Cpd Smiles	Recorded Endpoint	Meas Value
Cn1cncc1[C@@](N)(c1ccc(Cl)cc1)c1ccc2c(c1)c(-c1cccc(Cl)c1)cc(=O)n2C	IC50	1.23
